The measured values listed here are drawn from ChEMBL document CHEMBL5543175.

target: Protein cereblon/Tyrosine-protein phosphatase non-receptor type 1 (Homo sapiens, UniProt P18031+Q96SW2); test: PROTAC activity at PTP1B/CRBN in insulin treated human HepG2 cells assessed as protein degradation at 5 nM incubated for 72 hrs by Western blot analysis relative to control; format: cell-based
Sequence (P18031 whole entry, looked up): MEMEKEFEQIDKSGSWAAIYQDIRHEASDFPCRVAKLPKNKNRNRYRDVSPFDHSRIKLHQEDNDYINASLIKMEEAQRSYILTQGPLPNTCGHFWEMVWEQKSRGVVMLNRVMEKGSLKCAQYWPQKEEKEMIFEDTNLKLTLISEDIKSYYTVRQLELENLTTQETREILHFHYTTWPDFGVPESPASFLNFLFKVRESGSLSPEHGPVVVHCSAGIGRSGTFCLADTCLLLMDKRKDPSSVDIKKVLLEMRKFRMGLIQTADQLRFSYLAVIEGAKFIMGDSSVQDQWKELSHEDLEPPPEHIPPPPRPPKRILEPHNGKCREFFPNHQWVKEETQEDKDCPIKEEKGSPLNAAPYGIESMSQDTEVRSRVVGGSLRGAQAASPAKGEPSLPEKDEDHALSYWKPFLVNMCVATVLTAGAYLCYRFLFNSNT
Sequence (Q96SW2 whole entry, looked up): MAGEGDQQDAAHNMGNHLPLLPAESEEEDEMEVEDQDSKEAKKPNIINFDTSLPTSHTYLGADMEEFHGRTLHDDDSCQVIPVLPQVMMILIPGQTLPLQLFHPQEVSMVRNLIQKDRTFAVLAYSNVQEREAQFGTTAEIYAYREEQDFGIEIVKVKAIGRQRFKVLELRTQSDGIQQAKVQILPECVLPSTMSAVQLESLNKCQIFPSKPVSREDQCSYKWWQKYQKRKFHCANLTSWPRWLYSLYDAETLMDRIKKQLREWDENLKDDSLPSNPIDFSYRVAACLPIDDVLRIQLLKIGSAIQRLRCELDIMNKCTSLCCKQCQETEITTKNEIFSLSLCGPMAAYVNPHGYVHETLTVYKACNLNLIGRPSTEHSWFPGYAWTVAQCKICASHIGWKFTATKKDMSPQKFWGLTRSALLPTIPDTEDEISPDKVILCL
attribute measured: Activity (%)

So what's the measured Activity for this one? C[C@H]1[C@H](C)CC[C@]2(C(=O)NCCCCCCOCCOCCOCC(=O)Nc3cccc4c3C(=O)N(C3CCC(=O)NC3=O)C4=O)CC[C@]3(C)C(=CC[C@@H]4[C@@]5(C)CC[C@H](O)C(C)(C)[C@@H]5CC[C@]43C)[C@H]12 (stereo not given in full)
57

1 = C[C@H]1[C@H](C)CC[C@]2(C(=O)NCCCCCCOCCOCCOCCOCC(=O)Nc3cccc4c3C(=O)N(C3CCC(=O)NC3=O)C4=O)CC[C@]3(C)C(=CC[C@@H]4[C@@]5(C)CC[C@H](O)C(C)(C)[C@@H]5CC[C@]43C)[C@H]12 (stereo not given in full)
2 = CC1(C)CC[C@]2(C(=O)NCCCOCCCCOCCCNc3cccc4c3C(=O)N(C3CCC(=O)NC3=O)C4=O)CC[C@]3(C)C(=CC[C@@H]4[C@@]5(C)CC[C@H](O)C(C)(C)[C@@H]5CC[C@]43C)[C@@H]2C1 (stereo not given in full)
3 = CC1(C)CC[C@]2(C(=O)NCCCOCCOCCOCCCNc3cccc4c3C(=O)N(C3CCC(=O)NC3=O)C4=O)CC[C@]3(C)C(=CC[C@@H]4[C@@]5(C)CC[C@H](O)C(C)(C)[C@@H]5CC[C@]43C)[C@@H]2C1 (stereo not given in full)
Ordering criterion: Activity; begin with the maximum. Please list each label once, in the requested order.
2, 1, 3
(2: 54%, 1: 36%, 3: 23%)

====

target: Protein cereblon/Tyrosine-protein phosphatase non-receptor type 1 (Homo sapiens, UniProt P18031+Q96SW2); test: PROTAC activity at PTP1B/CRBN in insulin treated human HepG2 cells assessed as protein degradation at 500 nM incubated for 48 hrs by Western blot analysis relative to control; format: cell-based
attribute measured: Activity

I'd like to know its Activity. The molecule in question is CC1(C)CC[C@]2(C(=O)NCCCCCCOCCOCCOCCOCCCCCC(=O)Nc3cccc4c3C(=O)N(C3CCC(=O)NC3=O)C4=O)CC[C@]3(C)C(=CC[C@@H]4[C@@]5(C)CC[C@H](O)C(C)(C)[C@@H]5CC[C@]43C)[C@@H]2C1 (stereo partly drawn)
27%

Others:
So what's the measured Activity for this one? O=C1CCC(N2C(=O)c3cccc(NC(=O)CCCCCOCCOCCOCCOCCCCCCNC(=O)c4cccc(NC(=O)CSc5nc6ccccc6[nH]5)c4)c3C2=O)C(=O)N1 (stereo not drawn)
< 5%

Look at this molecule and give its reported Activity. O=C1CCC(N2C(=O)c3cccc(NC(=O)CCCCCOCCOCCOCCCCCCNC(=O)c4cccc(NC(=O)CSc5nc6ccccc6[nH]5)c4)c3C2=O)C(=O)N1 (stereo not drawn)
< 5%

====

target: Protein cereblon/Tyrosine-protein phosphatase non-receptor type 1 (Homo sapiens, UniProt P18031+Q96SW2); assay: PROTAC activity at PTP1B/CRBN in insulin treated human HepG2 cells assessed as protein degradation at 5 nM incubated for 48 hrs by Western blot analysis relative to control; assay type: cell-based
attribute measured: Activity (%)

The examples below pair each entry with its known result.
Given C[C@H]1[C@H](C)CC[C@]2(C(=O)NCCCOCCOCCOCCCNc3cccc4c3C(=O)N(C3CCC(=O)NC3=O)C4=O)CC[C@]3(C)C(=CC[C@@H]4[C@@]5(C)CC[C@H](O)C(C)(C)[C@@H]5CC[C@]43C)[C@H]12 (stereo not given in full) , state its recorded Activity.
37

Entry O=C1CCC(N2C(=O)c3cccc(NC(=O)COCCOCCCCCCNC(=O)c4cccc(NC(=O)CSc5nc6ccccc6[nH]5)c4)c3C2=O)C(=O)N1 (stereo not given) : reported Activity = ?
24

A = O=C1CCC(N2C(=O)c3cccc(NC(=O)CCCCCCCCCCNC(=O)c4cccc(NC(=O)CSc5nc6ccccc6[nH]5)c4)c3C2=O)C(=O)N1 (stereo not given)
B = CC1(C)CC[C@]2(C(=O)NCCCCCCOCCOCCOCCCCCC(=O)Nc3cccc4c3C(=O)N(C3CCC(=O)NC3=O)C4=O)CC[C@]3(C)C(=CC[C@@H]4[C@@]5(C)CC[C@H](O)C(C)(C)[C@@H]5CC[C@]43C)[C@@H]2C1 (stereo not given in full)
Between A and B , which one shows the smaller Activity number? Give the chosen item's label as your response.
B
(B: 8%, A: 32%)

====

molecular target: Protein cereblon/Tyrosine-protein phosphatase non-receptor type 1 (Homo sapiens, UniProt P18031+Q96SW2); test: PROTAC activity at PTP1B/CRBN in insulin treated human HepG2 cells assessed as protein degradation at 50 nM incubated for 48 hrs by Western blot analysis relative to control; format: cell-based
attribute measured: Activity (%)

I am curious: what Activity value has been reported for O=C1CCC(N2C(=O)c3cccc(NC(=O)COCCOCCOCCOCCCCCCNC(=O)c4cccc(NC(=O)CSc5nc6ccccc6[nH]5)c4)c3C2=O)C(=O)N1 (stereo not given) ?
70

Request the reported Activity associated with O=C1CCC(N2C(=O)c3cccc(NC(=O)CCCCCOCCOCCOCCCCCCNC(=O)c4cccc(NC(=O)CSc5nc6ccccc6[nH]5)c4)c3C2=O)C(=O)N1 (stereo not given)
32

1 = O=C1CCC(N2C(=O)c3cccc(NC(=O)COCCOCCOCCCCCCNC(=O)c4cccc(NC(=O)CSc5nc6ccccc6[nH]5)c4)c3C2=O)C(=O)N1 (stereo not given)
2 = C[C@H]1[C@H](C)CC[C@]2(C(=O)NCCCCCCOCCOCC(=O)Nc3cccc4c3C(=O)N(C3CCC(=O)NC3=O)C4=O)CC[C@]3(C)C(=CC[C@@H]4[C@@]5(C)CC[C@H](O)C(C)(C)[C@@H]5CC[C@]43C)[C@H]12 (stereo not given in full)
3 = CC1(C)CC[C@]2(C(=O)NCCCCCCOCCOCCOCCOCCCCCC(=O)Nc3cccc4c3C(=O)N(C3CCC(=O)NC3=O)C4=O)CC[C@]3(C)C(=CC[C@@H]4[C@@]5(C)CC[C@H](O)C(C)(C)[C@@H]5CC[C@]43C)[C@@H]2C1 (stereo not given in full)
Let's sort these by Activity, smallest first. Go ahead? Show the ranking through the labels, in the order asked for.
3, 1, 2
(3: 20%, 1: 38%, 2: 60%)

====

target: Protein cereblon/Tyrosine-protein phosphatase non-receptor type 1 (Homo sapiens, UniProt P18031+Q96SW2); assay: PROTAC activity at PTP1B/CRBN in insulin treated human HepG2 cells assessed as protein degradation at 50 nM incubated for 48 hrs by Western blot analysis relative to control; type: cell-based
attribute measured: Activity (%)

Answered cases to consult:
Suppose we examine the compound C[C@H]1[C@H](C)CC[C@]2(C(=O)NCCCCCCOCCOCCOCCOCC(=O)Nc3cccc4c3C(=O)N(C3CCC(=O)NC3=O)C4=O)CC[C@]3(C)C(=CC[C@@H]4[C@@]5(C)CC[C@H](O)C(C)(C)[C@@H]5CC[C@]43C)[C@H]12 (stereo not given in full) ; what Activity value has been reported?
41

// query Activity value for entry C[C@H]1[C@H](C)CC[C@]2(C(=O)NCCCOCCOCCOCCCNc3cccc4c3C(=O)N(C3CCC(=O)NC3=O)C4=O)CC[C@]3(C)C(=CC[C@@H]4[C@@]5(C)CC[C@H](O)C(C)(C)[C@@H]5CC[C@]43C)[C@H]12 (stereo not given in full)
51

Return reported Activity; argument: CC1(C)CC[C@]2(C(=O)NCCCCCCOCCOCCOCC(=O)Nc3cccc4c3C(=O)N(C3CCC(=O)NC3=O)C4=O)CC[C@]3(C)C(=CC[C@@H]4[C@@]5(C)CC[C@H](O)C(C)(C)[C@@H]5CC[C@]43C)[C@@H]2C1 (stereo not given in full)
56

Recorded Activity of O=C1CCC(N2C(=O)c3cccc(NC(=O)CCCCCOCCOCCOCCOCCCCCCNC(=O)c4cccc(NC(=O)CSc5nc6ccccc6[nH]5)c4)c3C2=O)C(=O)N1 (stereo not given) , please.
17

Tell me the measured Activity of CC1(C)CC[C@]2(C(=O)NCCCCCCNc3cccc4c3C(=O)N(C3CCC(=O)NC3=O)C4=O)CC[C@]3(C)C(=CC[C@@H]4[C@@]5(C)CC[C@H](O)C(C)(C)[C@@H]5CC[C@]43C)[C@@H]2C1 (stereo not given in full) , please.
44

P = CC1(C)CC[C@]2(C(=O)NCCCCCCOCCOCCOCCOCC(=O)Nc3cccc4c3C(=O)N(C3CCC(=O)NC3=O)C4=O)CC[C@]3(C)C(=CC[C@@H]4[C@@]5(C)CC[C@H](O)C(C)(C)[C@@H]5CC[C@]43C)[C@@H]2C1 (stereo not given in full)
Q = CC1(C)CC[C@]2(C(=O)NCCCCCCOCCOCCCCCC(=O)Nc3cccc4c3C(=O)N(C3CCC(=O)NC3=O)C4=O)CC[C@]3(C)C(=CC[C@@H]4[C@@]5(C)CC[C@H](O)C(C)(C)[C@@H]5CC[C@]43C)[C@@H]2C1 (stereo not given in full)
R = O=C1CCC(N2C(=O)c3cccc(NC(=O)CCCCCCCCCCNC(=O)c4cccc(NC(=O)CSc5nc6ccccc6[nH]5)c4)c3C2=O)C(=O)N1 (stereo not given)
S = CC1(C)CC[C@]2(C(=O)NCCCCCCOCCOCCOCCCCCC(=O)Nc3cccc4c3C(=O)N(C3CCC(=O)NC3=O)C4=O)CC[C@]3(C)C(=CC[C@@H]4[C@@]5(C)CC[C@H](O)C(C)(C)[C@@H]5CC[C@]43C)[C@@H]2C1 (stereo not given in full)
Please list these compounds in decreasing order of Activity. Please respond with the labels ordered as the question requires.
P, Q, S, R

A = CC1(C)CC[C@]2(C(=O)NCCCCCCOCCOCC(=O)Nc3cccc4c3C(=O)N(C3CCC(=O)NC3=O)C4=O)CC[C@]3(C)C(=CC[C@@H]4[C@@]5(C)CC[C@H](O)C(C)(C)[C@@H]5CC[C@]43C)[C@@H]2C1 (stereo not given in full)
B = CC1(C)CC[C@]2(C(=O)NCCCOCCCCOCCCNc3cccc4c3C(=O)N(C3CCC(=O)NC3=O)C4=O)CC[C@]3(C)C(=CC[C@@H]4[C@@]5(C)CC[C@H](O)C(C)(C)[C@@H]5CC[C@]43C)[C@@H]2C1 (stereo not given in full)
C = O=C1CCC(N2C(=O)c3cccc(NC(=O)CCCCCOCCOCCCCCCNC(=O)c4cccc(NC(=O)CSc5nc6ccccc6[nH]5)c4)c3C2=O)C(=O)N1 (stereo not given)
Sort ascending by Activity. Respond with an ordered listing of the labels, as requested.
C, A, B
